Test Details: Cytotoxicity against rat Primary hepatocytes assessed as cell viability at 25 uM incubated for 12 hrs
Assay type: toxicity, cell-based, Hepatocyte
Measurement Conditions: read-out: Activity
Outcome Measure: viability at 12 h, 25 µM

Record Smiles	Test Value
C=C1C(=O)O[C@H]2CC3=C[C@H](C/C(C)=C/[C@@H](OC(=O)/C=C/c4cccs4)[C@H]12)OC3=O	96.7%
C=C1C(=O)O[C@H]2CC3=C[C@H](C/C(C)=C/[C@@H](OC(=O)CCCCCCC(=O)O[C@@H]4/C=C(\C)C[C@H]5C=C(C[C@@H]6OC(=O)C(=C)[C@H]64)C(=O)O5)[C@H]12)OC3=O	59.2%
